Entries and their measured EC50 (read off the curve) follow.
# Tested Target: human properdin (human, UniProt P27918 28-469)
# Sequence (P27918 28-469 limits assumed): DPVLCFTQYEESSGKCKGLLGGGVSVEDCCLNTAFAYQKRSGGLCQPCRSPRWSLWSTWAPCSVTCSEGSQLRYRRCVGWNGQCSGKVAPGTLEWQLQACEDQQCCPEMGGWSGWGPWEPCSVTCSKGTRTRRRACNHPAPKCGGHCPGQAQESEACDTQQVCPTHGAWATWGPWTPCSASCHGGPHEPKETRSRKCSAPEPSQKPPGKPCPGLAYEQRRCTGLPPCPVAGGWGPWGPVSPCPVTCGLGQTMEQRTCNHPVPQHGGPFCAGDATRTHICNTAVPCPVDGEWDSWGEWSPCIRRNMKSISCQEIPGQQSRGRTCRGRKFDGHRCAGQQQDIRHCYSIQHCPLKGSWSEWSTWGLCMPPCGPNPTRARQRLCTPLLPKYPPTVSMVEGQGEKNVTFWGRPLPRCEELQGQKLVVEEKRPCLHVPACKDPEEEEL
# Protocol Notes: ELISA, properdin coated on the plate, OD 450 nm

Here are 3 binders together with their reported answers.
NMT28-100 (antibody, V domains shown) VH: EVQLVQSGAEVKKPGASVKVSCKASGYIFTNYPIHWVRQAPGQGLEWMGFIDPGGGYDEPDERFRDRVTMTADTSTSTAYMELSSLRSEDTAVYYCARRGGGYYLDYWGQGTLVTVSS VL: DIQMTQSPSSLSASVGDRVTITCRASQDISFFLNWYQQKPGKAPKLLIYYTSRYHSGVPSRFSGSGSGTDFTLTISSLQPEDFATYYCQHGQTLPWTFGQGTKVEIK | 0.3 to 0.4 nM
NMT17-100 (antibody, V domains shown) VH: EVQLVQSGAEVKKPGASVKVSCKASGYIFTNYPIHWVRQAPGQGLEWMGFIDPGGGYDEPDERFRDRVTMTADTSTSTAYMELSSLRSEDTAVYYCARRGGGYYLDYWGQGTTVTVSS VL: DIQMTQSPSSLSASVGDRVTITCRASQDISFFLNWYQQKPGKAPKLLIYYTSRYHSGVPSRFSGSGSGTDFTLTISSLQPEDFATYYCQHGSTLPWTFGQGTKLEIK | ~0.3 nM
NMT17-101 (antibody, V domains shown) VH: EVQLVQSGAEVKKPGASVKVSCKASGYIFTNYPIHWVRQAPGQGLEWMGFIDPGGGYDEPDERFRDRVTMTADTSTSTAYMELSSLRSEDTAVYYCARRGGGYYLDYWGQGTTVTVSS VL: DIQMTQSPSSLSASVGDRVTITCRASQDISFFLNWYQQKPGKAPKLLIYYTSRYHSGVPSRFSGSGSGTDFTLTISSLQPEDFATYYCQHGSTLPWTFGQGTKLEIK | ~0.5 nM

In: Dear colleague, please send me the reported EC50 (read off the curve) for NMT18-101 (antibody, V domains shown) VH: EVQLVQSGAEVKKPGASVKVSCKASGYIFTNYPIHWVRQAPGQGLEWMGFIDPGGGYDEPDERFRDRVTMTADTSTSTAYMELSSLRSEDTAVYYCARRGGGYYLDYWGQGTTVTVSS VL: DIQMTQSPSSLSASVGDRVTITCRASQDISFFLNWYQQKPGKAPKLLIYYTSRYHSGVPSRFSGSGSGTDFTLTISSLQPEDFATYYCQHGQTLPWTFGQGTKLEIK when you can.
Out: ~0.6 nM

In: For the binder NMT18-100 (antibody, V domains shown) VH: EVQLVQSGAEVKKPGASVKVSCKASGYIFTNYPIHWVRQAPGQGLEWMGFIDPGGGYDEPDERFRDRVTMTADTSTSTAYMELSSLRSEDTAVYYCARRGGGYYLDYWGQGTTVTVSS VL: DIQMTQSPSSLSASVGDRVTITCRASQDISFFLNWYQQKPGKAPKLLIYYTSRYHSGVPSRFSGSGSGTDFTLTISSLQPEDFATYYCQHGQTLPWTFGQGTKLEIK , report EC50 (read off the curve).
Out: 0.3 to 0.4 nM

In: For NMT28-101 (antibody, V domains shown) VH: EVQLVQSGAEVKKPGASVKVSCKASGYIFTNYPIHWVRQAPGQGLEWMGFIDPGGGYDEPDERFRDRVTMTADTSTSTAYMELSSLRSEDTAVYYCARRGGGYYLDYWGQGTLVTVSS VL: DIQMTQSPSSLSASVGDRVTITCRASQDISFFLNWYQQKPGKAPKLLIYYTSRYHSGVPSRFSGSGSGTDFTLTISSLQPEDFATYYCQHGQTLPWTFGQGTKVEIK , write its EC50 (read off the curve).
Out: ~0.4 nM
